Overview of recorded lipase activity, 7 d for various compounds
Molecular target: Lipolase® 100L (Thermomyces lanuginosus, UniProt O59952)
Construct: purchased Sigma-Aldrich
Sequence (O59952 23-291): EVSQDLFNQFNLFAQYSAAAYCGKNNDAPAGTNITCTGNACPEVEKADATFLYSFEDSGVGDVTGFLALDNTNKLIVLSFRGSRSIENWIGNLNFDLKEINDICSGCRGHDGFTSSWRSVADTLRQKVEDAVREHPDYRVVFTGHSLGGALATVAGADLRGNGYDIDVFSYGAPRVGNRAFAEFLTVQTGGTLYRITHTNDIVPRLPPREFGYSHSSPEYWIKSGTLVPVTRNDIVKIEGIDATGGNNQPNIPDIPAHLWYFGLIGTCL
Assay: Lipase storage stability in liquid formulations at 37° C. (pNP-valerate activity)
Assay type: biochemical, Thermomyces lanuginosa
Details: base formulation I. (Lipolase 0.2 wt%, tested compound 2.5 wt%); 7 d storage at 37° C.
Experimental: The storage stability of Lipase was assessed at 37° C. Base test formulations were manufactured by making base formulations I to V by mixing the components according to Table 1. […] Lipolase activity at certain points in time as indicated in Table 2 was be determined by employing pNitrophenol-valerate (2.4 mM pNP-C5 in 100 mM Tris pH 8.0, 0.01% Triton X100) as a substrate. The absorption at 405 nm was measured at 20° C. every 30 seconds over 5 minutes. […]
Give the value, in units of %, as a plain number.

Below are worked cases with known answers.
In: Give a short answer stating reported lipase activity, 7 d for CCCOC(=O)CC(O)(CC(=O)OCCC)C(=O)OCCC [A.2, Tripropylcitrate] .
Out: 98

In: Give a short answer stating reported lipase activity, 7 d for CCOC(=O)CC(CC(=O)OCC)(OC(C)=O)C(=O)OCC [A.5, Acetyltriethylcitrate] .
Out: 97

In: Give a short answer stating reported lipase activity, 7 d for CC(=O)OCC(COC(C)=O)OC(C)=O [B.4, glyceroltriacetate (triacetine), reference compound] .
Out: 84

In: Give a short answer stating reported lipase activity, 7 d for O=C(O)CC(O)(CC(=O)O)C(=O)O [B.1, citric acid, reference compound] .
Out: 81

In: Give a short answer stating reported lipase activity, 7 d for CCOC(=O)CC(O)(CC(=O)OCC)C(=O)OCC [A.1, Triethylcitrate] .
Out: 96

New cases:
In: Give a short answer stating reported lipase activity, 7 d for CCCCOC(=O)CC(CC(=O)OCCCC)(OC(C)=O)C(=O)OCCCC [A.4, Acetyltributylcitrate] .
Out: 99

In: Give a short answer stating reported lipase activity, 7 d for CCOC(=O)C(=O)OCC [B.3, diethyloxalate, reference compound] .
Out: 80

In: Give a short answer stating reported lipase activity, 7 d for O=C([O-])CC(O)(CC(=O)[O-])C(=O)[O-].[Na+].[Na+].[Na+] [B.2, citric acid trisodiumsalt, reference compound] .
Out: 81

----------
Target: Lipolase® 100L (Thermomyces lanuginosus)
Construct: purchased Sigma-Aldrich
Experiment: Lipase storage stability in liquid formulations at 37° C. (pNP-valerate activity)
Type: biochemical, Thermomyces lanuginosa
Conditions: base formulation V. (Lipolase 0.2 wt%, tested compound 2.0 wt%); 3 d storage at 37° C.
Description: The storage stability of Lipase was assessed at 37° C. Base test formulations were manufactured by making base formulations I to V by mixing the components according to Table 1. […] Lipolase activity at certain points in time as indicated in Table 2 was be determined by employing pNitrophenol-valerate (2.4 mM pNP-C5 in 100 mM Tris pH 8.0, 0.01% Triton X100) as a substrate. The absorption at 405 nm was measured at 20° C. every 30 seconds over 5 minutes. […]
observable: lipase activity, 3 d (%)
Give the value, in units of %, as a plain number.

In: Give a short answer stating reported lipase activity, 3 d for O=C(CC(O)(CC(=O)OCc1ccccc1)C(=O)OCc1ccccc1)OCc1ccccc1 [A.8, Tribenzylcitrate] .
Out: 96
